# run.description: Critical micellar concentration was measured in water by the dye solubilization method
# Format: ADME
# protocol.conditions: buffer
Documented CMC across a set of compounds
Report the figure along with its unit, number first.

Reported CMC ( CC(C1CC[C@H]2[C@@H]3[C@@H](O)CC4C[C@H](O)CCC4(C)[C@H]3CCC12C)[C@@H]1C[C@@H]1C(=O)O (stereo not given in full) ) = 25 mM

Lab book: CMC of C[C@H](CCC(=O)O)[C@H]1CC[C@H]2[C@@H]3[C@@H](O)C[C@@H]4C[C@H](O)CC[C@]4(C)[C@H]3CC[C@]12C [URSODIOL] noted as 19 mM

CMC for C[C@H]([C@H]1C[C@H]1C(=O)O)[C@H]1CC[C@H]2[C@@H]3[C@@H](O)CC4C[C@H](O)CC[C@]4(C)[C@H]3CC[C@]12C (stereo not given in full) is 10 mM

What the record says about C[C@H]([C@@H]1C[C@@H]1C(=O)O)[C@H]1CC[C@H]2[C@@H]3[C@@H](O)CC4C[C@H](O)CC[C@]4(C)[C@H]3CC[C@]12C (stereo not given in full) : CMC is 14 mM

// CMC value for CC(C1CC[C@H]2[C@@H]3[C@@H](O)CC4C[C@H](O)CCC4(C)[C@H]3CCC12C)[C@H]1C[C@H]1C(=O)O (stereo not given in full) : 20 mM
